- Experimental target: T1, fusion protein of the maltose binding protein (MBP) and the N-terminus of Ezrin (amino acids 1-310) (human, UniProt P15311 1-310)
- T1 construct: Ezrin, human, N-terminus, amino acids 1-310; Cloned into the EcoRI/SalI sites of pMAL-c2; also called MBP-Ezrin-NT; MBP Ezrin-NT; source: E. coli DH5α, precipitated by Amylose-resin
- T1 sequence (P15311 1-310): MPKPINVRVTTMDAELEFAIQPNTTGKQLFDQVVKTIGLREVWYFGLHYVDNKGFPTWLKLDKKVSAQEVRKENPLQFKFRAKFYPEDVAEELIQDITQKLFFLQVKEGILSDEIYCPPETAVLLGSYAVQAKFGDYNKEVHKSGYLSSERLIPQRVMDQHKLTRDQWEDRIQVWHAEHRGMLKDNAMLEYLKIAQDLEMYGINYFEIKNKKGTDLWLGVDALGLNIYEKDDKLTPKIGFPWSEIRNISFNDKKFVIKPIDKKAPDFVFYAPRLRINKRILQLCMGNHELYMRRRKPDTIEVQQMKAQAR
- Method description: SPR; Biacore3000; biotin-labeled NEP peptides coupled to streptavidin (SA) chip to ~1000 RU; HBS-P buffer (10 mM HEPES pH 7.4, 150 mM NaCl, 0.005% Surfactant P20), 25°C, 30 µl/min; reference surface without peptide subtracted; MBP Ezrin-NT 0.05-0.8 µM, GST PTEN-CT 1.6-12.8 µM
- Cond: both partners purified
pKd: −log10 of the molar value. Non-standard residues stand in square brackets, D forms with d. No end group written: not given here. *: point of attachment. Biotin = O=C1N[C@H]2[C@H](CS[C@H]2CCCCC(=O)*)N1; pS = N[C@@H](COP(=O)(O)O)C(=O)O
Experimental endpoint: pKd

>>> result("GKSE[pS]QMDITDINTPKPKKKQRK(Biotin) (neprilysin (NEP, neutral endopeptidase 24.11, CD10), human, N-terminal cytoplasmic domain, amino acids 2-23, serine 6 phosphorylated; C-terminal lysine that carries the biotin, named in words only; It is surmised that the biotinylated lysine is an extra residue after aa 23; also called pNEP-NT; phosphorylated NEP-NT; source: synthetic peptide (Peptide Specialty Labs, Heidelberg))")
"~8.23"
>>> result("GKSESQMDITDINTPKPKKKQRK(Biotin) (neprilysin (NEP, neutral endopeptidase 24.11, CD10), human, N-terminal cytoplasmic domain, amino acids 2-23; C-terminal lysine that carries the biotin, named in words only; It is surmised that the biotinylated lysine is an extra residue after aa 23; also called NEP-NT; non-phosphorylated NEP-NT; source: synthetic peptide (Peptide Specialty Labs, Heidelberg))")
"~8.24"
